System: NCI/ADR-RES ovarian
Test: NCI tumour cell line growth inhibition, 48 h
quantityMeasured: GI50

Dear colleague, I am looking for the recorded GI50 of the following compound: CCOC(=O)/C(=C/CC/C(C)=C/CC/C(C)=C/CCc1ccoc1)CC(=O)N1CCCCC1
3.88 µM

Ok, now C=CC(=O)N[C@@H]1CN(c2nc(Nc3cn(C)nc3OC)c3ncn(C)c3n2)C[C@H]1F
> 100 µM

Ok, now NC(N)=NN=c1c(=O)c2ccccc2c1=O
10.4 µM

Ok, now C[C@@H](Nc1nc(N[C@H](C)C(F)(F)F)nc(-c2cccc(Cl)n2)n1)C(F)(F)F
32.9 µM

Ok, now Clc1ccc(-c2cc(-c3ccccc3)nc(N3CCN(CCCNc4ccnc5cc(Cl)ccc45)CC3)n2)cc1
1.75 µM

Continuing:
Dear colleague, I am looking for the recorded GI50 of the following compound: CNC(=O)c1cc(Oc2ccc3nc(NC(=O)Nc4ccc(CN5CCOCC5)c(C(F)(F)F)c4)sc3c2)ccn1
2.07 µM

Ok, now OCC#CCOCC#Cc1ccccc1C#CCOCC#CCO
46.6 µM

Ok, now CCn1cnc(C[C@H](NC(=O)[C@H](CCCCNC(=O)Nc2cc(C(F)(F)F)cc(C(F)(F)F)c2)NC(=O)Nc2cc(C(F)(F)F)cc(C(F)(F)F)c2)C(=O)OC)c1
> 10 µM

Ok, now N#C/C(=C\c1ccc(O)c(O)c1)C(=O)NCc1ccc(C(F)(F)F)cc1
5.19 µM

Where do these numbers come from? They come from PubChem BioAssay (NCI).
